targetOrSystem: BCL6 BTB domain (Homo sapiens (Human))
Consider the cut-off 50 nM. If the recorded Kd is strictly smaller, the label is Y; if not, the label is N.

Observe how each entry below is paired with its result.
>>> grouplabel("Cn1cnc2c(c(-c3cc(Cl)c(O)c(C(N)=O)c3)cn2CC(=O)Nc2c(Cl)cnc(N3CCOCC3)c2F)c1=O [Compound I-191]")
"N"
>>> grouplabel("CCN(C)c1nc2c(c(-c3cc(Cl)c(O)c(C(N)=O)c3)cn2CC(=O)Nc2cc(N3CCOC[C@@H]3C)ncc2Cl)c(=O)n1C [Compound I-269]")
"N"
>>> grouplabel("C[C@H]1CN(CCC(F)(F)F)CCN1c1cc(NC(=O)Cn2cc(-c3cc(C(N)=O)c(O)c(F)c3F)c3c(=O)n(C)cnc32)c(Cl)cn1 [Compound I-453]")
"N"
>>> grouplabel("COc1c(O)c(C(N)=O)cc(-c2cn(CC(=O)Nc3cc(N4CCOCC4)ncc3F)c3ncn(C)c(=O)c23)c1F [Compound I-197]")
"N"

I wonder whether CN1C(C)(C)CN(c2cc(NC(=O)Cn3cc(-c4cc(Cl)c(O)c(C(N)=O)c4)c4c(=O)n(C)cnc43)c(Cl)cn2)CC1(C)C [Compound I-146] has Kd below 50 nM. Can you tell?
Y

I wonder whether C[C@H]1CN(CC2CC2)CCN1c1cc(NC(=O)Cn2cc(-c3cc(F)c(O)c(C(N)=O)c3)c3c(=O)n(C)cnc32)c(Cl)cn1 [Compound I-303] has Kd below 50 nM. Can you tell?
Y

I wonder whether COCCN1CCN(c2cc(NC(=O)Cn3cc(-c4cc(Cl)c(O)c(C(N)=O)c4)c4c(=O)n(C)cnc43)c(Cl)cn2)[C@@H](C)C1 [Compound I-415] has Kd below 50 nM. Can you tell?
Y

I wonder whether Cc1nc2c(s1)CN(c1cc(NC(=O)Cn3cc(-c4cc(Cl)c(O)c(C(N)=O)c4)c4c(=O)n(C)cnc43)c(Cl)cn1)C2 [Compound I-108] has Kd below 50 nM. Can you tell?
Y

I wonder whether Cn1cnc2c(c(-c3cc(Cl)c(O)c(C(N)=O)c3)cn2CC(=O)Nc2cc3c(cc2Cl)OCCN3CCN2CCOCC2)c1=O [Compound I-213] has Kd below 50 nM. Can you tell?
Y

I wonder whether Cc1nc2c(c(-c3cc(Cl)c(O)c(C(N)=O)c3)cn2CC(=O)Nc2cc(N3CCN(C)CC3)ncc2Cl)c(=O)n1C [Compound I-306] has Kd below 50 nM. Can you tell?
Y

###

targetOrSystem: BCL6 BTB domain (Homo sapiens (Human))
Catalogue of compounds with associated Kd
Express your answer in µM, writing the number without its unit.

For orientation, consider the following solved cases.
>>> measurement("COc1c(O)c(C(N)=O)cc(-c2cn(CC(=O)Nc3cc(N4C[C@@H](C)O[C@@H](C)C4)ncc3Cl)c3ncn(C)c(=O)c23)c1F")
0.167
>>> measurement("C[C@H]1COCCN1c1cc(NC(=O)Cn2cc(-c3cc(Cl)c(O)c(C(N)=O)c3)c3c(=O)n(C)cnc32)c(Cl)c(F)n1")
0.014

Short answer please: Kd, BCL6 BTB domain (Homo sapiens (Human)), entry COc1ncc(Cl)c(NC(=O)Cn2cc(-c3cc(C(N)=O)c(O)c(F)c3F)c3c(=O)n(C)c(C)nc32)c1F
0.24

Short answer please: Kd, BCL6 BTB domain (Homo sapiens (Human)), entry C[C@H]1CN(C2COC2)CCN1c1cc(NC(=O)Cn2cc(-c3cc(Cl)c(O)c(C(N)=O)c3)c3c(=O)n(C)cnc32)c(Cl)c(F)n1
0.00615
